# assay_info: PK study, oral bioavailability in rats
# Assay type: in vivo, Sprague Dawley rats
# conditions_used: Sprague Dawley, rat, plasma, po, Table 1
reported_metric: bioavailability (%)
Answers are plain numbers, in %.

Problem: Fill in reported bioavailability for this entry: C#CC(F)(F)[C@]1(O)CCC2C3CCC4=CC(=O)CCC4=C3[C@@H](c3cccc(C#N)c3C)C[C@@]21C (stereo partly shown)
Result: 87.9

---

# assay_info: PK study, oral bioavailability in rats
# Type: in vivo, Sprague Dawley rats
# conditions_used: Sprague Dawley, rat, plasma, po, PK studies in Sprague Dawley rats, FIG. 4
reported_metric: bioavailability

Problem: For the compound C#CC(F)(F)[C@]1(O)CCC2C3CCC4=CC(=O)CCC4=C3[C@@H](c3cccc(C#N)c3C)C[C@@]21C (stereo partly shown) [EC914] , give its reported bioavailability.
Result: 87.9%
